Reference source: patent US20190031667A1

readout label: melting point

[[record]]
molecule = "CCS(=O)(=O)c1ccc(-c2cccnc2)nc1-n1nc2cc(C(F)(F)F)ncc2c1Cl [Compound P17]"
readout_label = "melting point"
test_result = "194 to 196 °C"

[[record]]
molecule = "CCS(=O)(=O)c1ccc(-n2cnc(SC)n2)nc1-n1cc2cnc(C(F)(F)F)cc2n1 [Compound P27]"
readout_label = "melting point"
test_result = "172 to 174 °C"

[[record]]
molecule = "CCS(=O)(=O)c1ccc(-n2ccc(C#N)n2)nc1-n1nc2cc(C(F)(F)F)ncc2c1Cl [Compound P21]"
readout_label = "melting point"
test_result = "264 to 266 °C"

[[record]]
molecule = "CCS(=O)(=O)c1ccc(-n2cnc(S(C)(=O)=O)n2)nc1-n1cc2cnc(C(F)(F)F)cc2n1 [Compound P28]"
readout_label = "melting point"
test_result = "247 to 249 °C"

[[record]]
molecule = "CCS(=O)(=O)c1ccc(-c2cc(F)cc(F)c2)nc1-n1cc2cnc(C(F)(F)F)cc2n1 [Compound P1]"
readout_label = "melting point"
test_result = "207 to 209 °C"

[[record]]
molecule = "CCS(=O)(=O)c1ccc(N(C)C)nc1-n1nc2cc(C(F)(F)F)ncc2c1Cl [Compound P29]"
readout_label = "melting point"
test_result = "166 to 168 °C"


* * *

Measured melting point, listed per entry for reference.
readout label: melting point

[[record]]
substance_smiles = "CCS(=O)(=O)c1ccc(NC)nc1-n1nc2cc(C(F)(F)F)ncc2c1Cl"
test_result = "257 to 259 °C"

[[record]]
substance_smiles = "CCS(=O)(=O)c1ccc(N(C)C)nc1-n1cc2cnc(C(F)(F)F)cc2n1"
test_result = "256 to 258 °C"

[[record]]
substance_smiles = "CCS(=O)(=O)c1ccc(-n2cnc(SC)n2)nc1-n1nc2cc(C(F)(F)F)ncc2c1Cl"
test_result = "118 to 120 °C"

[[record]]
substance_smiles = "CCS(=O)(=O)c1ccc(NO)nc1-n1nc2cc(C(F)(F)F)ncc2c1Cl"
test_result = "246 to 248 °C"


* * *

- System: Myzus persicae (Green Peach Aphid)
- run description: Example B5: Activity against Myzus persicae, sprayed sunflower leaf discs
- Format: in vivo
- test context: foliar, 144 h, application rate 200 ppm, mixed-age aphids, 6 days after infestation
Measured mortality at 200 ppm, listed per entry for reference.
readout label: mortality at 200 ppm

[[record]]
molecule = "CCS(=O)(=O)c1ccc(-c2cncnc2)nc1-n1cc2cnc(C(F)(F)F)cc2n1 [Compound P9]"
measured_target = "Myzus persicae (Green Peach Aphid)"
readout_label = "mortality at 200 ppm"
test_result = "≥ 80%"

[[record]]
molecule = "CCS(=O)(=O)c1cc(Cl)c(OC)nc1-n1cc2cnc(C(F)(F)F)cc2n1 [Compound P24]"
measured_target = "Myzus persicae (Green Peach Aphid)"
readout_label = "mortality at 200 ppm"
test_result = "≥ 80%"

[[record]]
molecule = "CCS(=O)(=O)c1ccc(-n2cncn2)nc1-n1cc2cnc(C(F)(F)F)cc2n1 [Compound P3]"
measured_target = "Myzus persicae (Green Peach Aphid)"
readout_label = "mortality at 200 ppm"
test_result = "≥ 80%"

[[record]]
molecule = "CCOc1nc(-n2cc3cnc(C(F)(F)F)cc3n2)c(S(=O)(=O)CC)cc1Cl [Compound P23]"
measured_target = "Myzus persicae (Green Peach Aphid)"
readout_label = "mortality at 200 ppm"
test_result = "≥ 80%"

